Here the recorded log10 of IC50 is given for each entry.
- EXPERIMENTAL TARGET: MCT4 (Homo sapiens (Human))
- Sequence (O15427 whole entry, looked up): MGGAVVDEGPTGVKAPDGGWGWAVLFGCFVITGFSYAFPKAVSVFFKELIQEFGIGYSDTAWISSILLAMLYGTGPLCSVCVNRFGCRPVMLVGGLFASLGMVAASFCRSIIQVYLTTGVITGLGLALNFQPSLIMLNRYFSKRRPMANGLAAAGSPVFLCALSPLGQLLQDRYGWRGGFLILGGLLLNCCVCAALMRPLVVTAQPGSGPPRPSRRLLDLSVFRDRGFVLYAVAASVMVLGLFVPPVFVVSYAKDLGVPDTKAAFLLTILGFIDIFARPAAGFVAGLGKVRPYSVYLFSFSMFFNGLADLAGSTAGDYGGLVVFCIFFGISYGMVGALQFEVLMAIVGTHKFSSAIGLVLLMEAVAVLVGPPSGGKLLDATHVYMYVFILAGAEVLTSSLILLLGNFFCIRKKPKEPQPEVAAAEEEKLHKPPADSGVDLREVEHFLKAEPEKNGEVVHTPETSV
- Sequence (P35613 whole entry partner, looked up): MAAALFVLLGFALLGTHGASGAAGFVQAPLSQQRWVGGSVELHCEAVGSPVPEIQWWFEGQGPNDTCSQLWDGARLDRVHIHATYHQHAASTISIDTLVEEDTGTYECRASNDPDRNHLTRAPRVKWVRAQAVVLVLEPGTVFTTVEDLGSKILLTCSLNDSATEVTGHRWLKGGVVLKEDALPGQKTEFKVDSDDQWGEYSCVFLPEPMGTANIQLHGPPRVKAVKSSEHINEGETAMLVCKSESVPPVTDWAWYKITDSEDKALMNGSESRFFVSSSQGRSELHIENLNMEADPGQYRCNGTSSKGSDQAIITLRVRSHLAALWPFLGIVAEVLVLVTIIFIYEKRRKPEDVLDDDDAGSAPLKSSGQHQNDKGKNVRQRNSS
- ASSAY OVERVIEW: MCT4-mediated lactate transport in MDA-MB-231 breast cancer cells
- Format: cell-based
- RUN PARAMETERS: MDA-MB-231 cells, native MCT4; 50 mM L-lactate
Transform log10 | Measure IC50 | Unit nM

Return log10 of IC50 (reported value) for this compound: CC(C)(OCc1cc(-c2cccc(C#N)c2)n(Cc2ccccc2Cl)n1)C(=O)O [Example 48] 1.95

###

Here the recorded IC50 is given for each entry.
- EXPERIMENTAL TARGET: MCT1 (Homo sapiens (Human), UniProt P53985)
- Sequence (P53985 whole entry, one chain of several): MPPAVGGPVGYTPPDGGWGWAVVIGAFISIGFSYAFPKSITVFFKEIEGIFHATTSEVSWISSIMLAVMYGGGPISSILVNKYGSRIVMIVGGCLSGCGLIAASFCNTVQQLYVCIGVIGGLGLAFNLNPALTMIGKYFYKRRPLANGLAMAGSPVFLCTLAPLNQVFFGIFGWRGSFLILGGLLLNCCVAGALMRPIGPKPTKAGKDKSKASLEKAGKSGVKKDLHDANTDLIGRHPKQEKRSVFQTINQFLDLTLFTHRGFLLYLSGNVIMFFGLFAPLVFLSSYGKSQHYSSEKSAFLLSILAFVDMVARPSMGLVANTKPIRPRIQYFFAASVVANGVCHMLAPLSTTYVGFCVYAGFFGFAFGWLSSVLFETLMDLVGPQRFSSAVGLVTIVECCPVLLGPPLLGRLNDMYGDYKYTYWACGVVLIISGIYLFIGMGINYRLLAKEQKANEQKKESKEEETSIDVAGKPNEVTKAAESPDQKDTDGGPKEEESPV
- ASSAY OVERVIEW: MCT1-mediated lactate transport in BT20 breast cancer cells
- Format: cell-based
- RUN PARAMETERS: native MCT1, 10 mM L-lactate, Table 3

# annotated cases, reported IC50 shown
INSERT INTO results (molecule, test_readout, measurement) VALUES
  ('CC(C)C(=O)Nc1cccc(-c2cc(COC(C)(C)C(=O)O)nn2Cc2ccccc2Cl)c1 [Example 69]', 'IC50', '> 100000 nM'),
  ('COc1cccc(-c2cc(COC(C)(C)C(=O)O)nn2Cc2ccccc2Cl)c1 [Example 14]', 'IC50', '> 100000 nM'),
  ('CC(C)NC(=O)c1cccc(-c2cc(COC(C)(C)C(=O)O)nn2Cc2ccccc2Cl)c1 [Example 74]', 'IC50', '> 100000 nM');

Return IC50 (reported value) for this molecule: COc1cccc(-c2cc(COC(C)(C)C(=O)O)nn2-c2ccccn2)c1 [Example 56] > 133000 nM

###

Here the recorded IC50 is given for each entry.
- EXPERIMENTAL TARGET: MCT4 (Homo sapiens (Human))
- ASSAY OVERVIEW: Lactate transport in MCT4-expressing MDA-MB-453 breast cancer cells (BCECF)
- Assay type: cell-based
- RUN PARAMETERS: MDA-MB-453 cells stably expressing MCT4; 50 mM L-lactate
Answers without a unit are incomplete; give the number and then its unit.

INSERT INTO measurements (molecule, experimental_target, test_readout, measurement) VALUES
  ('CC(C)(OCc1cc(-c2ccccc2)n(Cc2ccccc2Cl)n1)C(=O)O [Example 8]', 'MCT4 (Homo sapiens (Human))', 'IC50', '69 nM'),
  ('CC(C)(OCc1cc(-c2ccccc2)n(Cc2cccc(Cl)c2)n1)C(=O)O [Example 1]', 'MCT4 (Homo sapiens (Human))', 'IC50', '340 nM'),
  ('CC(C)(OCc1cc(-c2ccc(Cl)cc2)n(Cc2ccccc2F)n1)C(=O)O [Example 19]', 'MCT4 (Homo sapiens (Human))', 'IC50', '110 nM'),
  ('CC(C)(OCc1cc(-c2ccc(Cl)cc2)n(Cc2ccccc2Cl)n1)C(=O)O [Example 3]', 'MCT4 (Homo sapiens (Human))', 'IC50', '72 nM'),
  ('O=C(O)COCc1cc(-c2ccc(Cl)cc2)n(Cc2ccc(Cl)cc2Cl)n1 [Example 6]', 'MCT4 (Homo sapiens (Human))', 'IC50', '2400 nM');

# input for lookup
Return IC50 (reported value) for this molecule: CC(C)(OCc1cc(-c2ccc(Cl)cc2)n(Cc2ccncc2)n1)C(=O)O [Example 21] 35000 nM

###

Here the recorded log10(IC50) is given for each entry.
- EXPERIMENTAL TARGET: MCT4 (Homo sapiens (Human))
- ASSAY OVERVIEW: MCT4-mediated lactate transport in MDA-MB-231 breast cancer cells
- Format: cell-based
- RUN PARAMETERS: MDA-MB-231 cells, native MCT4; 50 mM L-lactate
Transform log10 | Measure IC50 | Unit nM

# annotated cases, reported log10(IC50) shown
INSERT INTO results (smiles_repr, test_readout, measurement) VALUES
  ('COc1ccc(Cn2nc(COC(C)(C)C(=O)O)cc2-c2cccc(OCC(C)C)c2)cc1', 'log10(IC50)', 1.57),
  ('COc1ccc(-c2cc(COC(C)(C)C(=O)O)nn2Cc2ccccc2Cl)s1', 'log10(IC50)', 0.92),
  ('COc1cccc(-c2c(C)c(COC(C)(C)C(=O)O)nn2Cc2ccccc2Cl)c1', 'log10(IC50)', 1.57);

# input for lookup
Return log10(IC50) (reported value) for this compound: CC(C)(OCc1cc(-c2cccc(OC(F)(F)F)c2)n(Cc2ccccc2Cl)n1)C(=O)O 0.97

###

- EXPERIMENTAL TARGET: MCT1 (Homo sapiens (Human), UniProt P53985)
- ASSAY OVERVIEW: MCT1-mediated lactate transport in BT20 breast cancer cells
- Format: cell-based
- RUN PARAMETERS: native MCT1, 10 mM L-lactate, Table 3
Here the recorded IC50 is given for each entry.

INSERT INTO assay_data (smiles_repr, experimental_target, test_readout, measurement) VALUES
  ('COc1cccc(-c2cc(COC(C)(C)C(=O)O)nn2Cc2ccccc2)c1', 'MCT1 (Homo sapiens (Human), UniProt P53985)', 'IC50', '> 100000 nM'),
  ('COc1cccc(-c2cc(COC(C)(C)C(=O)O)nn2-c2ccccc2Cl)c1', 'MCT1 (Homo sapiens (Human), UniProt P53985)', 'IC50', '> 133000 nM'),
  ('CC(C)(OCc1cc(-c2cccc(OC(F)(F)F)c2)n(Cc2ccccc2Cl)n1)C(=O)O', 'MCT1 (Homo sapiens (Human), UniProt P53985)', 'IC50', '> 11000 nM'),
  ('CC(C)(OCc1cc(-c2cccc(S(C)(=O)=O)c2)n(Cc2ccccc2Cl)n1)C(=O)O', 'MCT1 (Homo sapiens (Human), UniProt P53985)', 'IC50', '> 100000 nM'),
  ('CC(C)(OCc1cc(-c2cccc(OCC(F)(F)F)c2)n(Cc2ccccc2Cl)n1)C(=O)O', 'MCT1 (Homo sapiens (Human), UniProt P53985)', 'IC50', '> 33000 nM');

Return IC50 (reported value) for this compound: CC(C)(OCc1cc(-c2ccsc2)n(Cc2ccccc2Cl)n1)C(=O)O > 100000 nM

###

- EXPERIMENTAL TARGET: UniProtKB O15427
- ASSAY OVERVIEW: MCT4-mediated lactate transport in MDA-MB-231 breast cancer cells
- Format: cell-based
- RUN PARAMETERS: MDA-MB-231 cells, native MCT4; 50 mM L-lactate
- Protocol: 10 μL of a 30 mM DMSO stock of BCECF-AM ester (Life Technologies) is added and the cells are incubated at 37° C. for 5 min. […] 2.5 μL BCECF-loaded cells, along with either 10 μL DMSO or 100×compound in DMSO, are added to 937.5 μL of Tyrode's Solution in a quartz 1.0 mL cuvette (PerkinElmer, B0631116). […] After establishing baseline BCECF fluorescence (around 10-20 s), 50 μL of 1 M sodium L-lactate (Sigma-Aldrich) is added to the cuvette (final concentration: 50 mM) and rapidly mixed. […]
Here the recorded IC50 is given for each entry.
Answers without a unit are incomplete; give the number and then its unit.

INSERT INTO assay_data (smiles_repr, measurement) VALUES
  ('CC(C)COc1cccc(-c2cc(COC(C)(C)C(=O)O)nn2Cc2ccccc2Cl)c1', '1 nM'),
  ('COc1cccc(-c2cc(COC(C)(C)C(=O)NS(C)(=O)=O)nn2Cc2ccccc2Cl)c1', '6300 nM'),
  ('CC(C)(OCc1cc(Nc2ccccc2)n(Cc2ccccc2Cl)n1)C(=O)O', '1700 nM');

Return IC50 (reported value) for this compound: COc1cccc(-c2cc(COC3(C(=O)O)CCC3)nn2Cc2ccccc2Cl)c1 55 nM

Return IC50 (reported value) for this compound: COc1cccc(-c2cc(COC(C)(C)C(=O)O)nn2Cc2ccccc2OC)c1 82 nM

Return IC50 (reported value) for this compound: COc1cccc(-c2cc(COC(C)(C)C(=O)O)nn2Cc2ccccc2)c1 160 nM

Return IC50 (reported value) for this compound: CC(C)(OCc1cc(-c2cccc(OCC3COC3)c2)n(Cc2ccccc2Cl)n1)C(=O)O 81 nM

Return IC50 (reported value) for this compound: CC(C)c1cccc(-c2cc(COC(C)(C)C(=O)O)nn2Cc2ccccc2Cl)c1 15 nM

Return IC50 (reported value) for this compound: CC(C)Oc1cccc(-c2cc(COC(C)(C)C(=O)O)nn2Cc2ccccc2Br)c1 3.7 nM

Return IC50 (reported value) for this compound: CC(C)NC(=O)c1cccc(-c2cc(COC(C)(C)C(=O)O)nn2Cc2ccccc2Cl)c1 6400 nM

Return IC50 (reported value) for this compound: CC(C)(OCc1cc(-c2cccc(O)c2)n(Cc2ccccc2Cl)n1)C(=O)O 59 nM

From: patent US10202350B2
